target: his-labeled human IL-13 (immunogen A) (human) (UniProt P35225); test: FACS blocking, biotin-IL-13 on IL-13Ra1/IL-4Ra HEK293 cells; antibody at 6.67 nM
mean fluorescence intensity overview

binder	mean fluorescence intensity
70F10A10 (lead antibody, mouse hybridoma) (antibody, V domains shown) VH: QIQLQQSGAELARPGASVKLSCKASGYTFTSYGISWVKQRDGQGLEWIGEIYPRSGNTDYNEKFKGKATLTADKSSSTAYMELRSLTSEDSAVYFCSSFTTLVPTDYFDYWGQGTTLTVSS VL: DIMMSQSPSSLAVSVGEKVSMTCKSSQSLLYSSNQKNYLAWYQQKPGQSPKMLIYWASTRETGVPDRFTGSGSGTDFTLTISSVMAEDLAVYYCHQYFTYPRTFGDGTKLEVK	24.7
c29D9H8 (mouse-human chimeric IL-13 antibody) (antibody, V domains shown) VH: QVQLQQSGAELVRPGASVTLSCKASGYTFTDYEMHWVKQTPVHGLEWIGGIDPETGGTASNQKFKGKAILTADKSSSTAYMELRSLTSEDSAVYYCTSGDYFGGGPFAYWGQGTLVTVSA VL: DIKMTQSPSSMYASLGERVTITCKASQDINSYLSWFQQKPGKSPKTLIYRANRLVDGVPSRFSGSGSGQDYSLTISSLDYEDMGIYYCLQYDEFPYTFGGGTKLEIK	28.3
c28A2E11 (mouse-human chimeric IL-13 antibody) (antibody, V domains shown) VH: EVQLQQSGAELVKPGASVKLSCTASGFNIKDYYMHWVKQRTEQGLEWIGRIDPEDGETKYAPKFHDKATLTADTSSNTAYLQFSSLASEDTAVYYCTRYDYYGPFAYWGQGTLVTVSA VL: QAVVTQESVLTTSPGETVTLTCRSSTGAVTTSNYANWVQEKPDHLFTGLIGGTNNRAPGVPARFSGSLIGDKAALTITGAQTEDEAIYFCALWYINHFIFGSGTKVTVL	65.2
c70F10A10 (mouse-human chimeric IL-13 antibody) (antibody, V domains shown) VH: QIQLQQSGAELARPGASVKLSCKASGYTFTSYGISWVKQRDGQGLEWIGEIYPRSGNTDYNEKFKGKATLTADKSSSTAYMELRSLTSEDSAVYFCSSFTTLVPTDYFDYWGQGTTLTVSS VL: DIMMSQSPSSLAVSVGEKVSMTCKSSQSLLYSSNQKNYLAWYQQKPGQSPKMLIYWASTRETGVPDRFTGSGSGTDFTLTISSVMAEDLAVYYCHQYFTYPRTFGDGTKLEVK	27.3
